Sourced from paper PMC11542186

biological target: Pin1 WW domain (Pin1–HRP) (Homo sapiens, UniProt Q13526); construct: purchased R&D Systems; test: ELEBA primary screening assay of the library; format: binding; details: separate plate of groups A and B (L2 control 85.0443); crude library members; DMSO = 100%; mean of N = 2
Sequence (Q13526 whole entry, the tested form may be a part): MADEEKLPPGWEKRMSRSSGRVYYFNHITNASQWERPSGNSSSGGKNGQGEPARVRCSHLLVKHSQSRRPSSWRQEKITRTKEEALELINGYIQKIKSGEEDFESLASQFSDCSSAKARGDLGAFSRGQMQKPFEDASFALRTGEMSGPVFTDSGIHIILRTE
recorded-metric: % of Pin1-HRP bound to plate-linked ligand (%)
Write the value in % as a bare number.

Query: Record request: % of Pin1-HRP bound to plate-linked ligand value, item O=C(C=Cc1c[nH]cn1)NC(COP(=O)(O)O)C(=O)N1CCCC1C(=O)NCCc1c[nH]c2ccccc12 (stereo not drawn) [1{14,b}]
Response: 109.953

Query: Param item: CC(CN(C)C(=O)C1CCCN1C(=O)C(COP(=O)(O)O)NC(=O)C=Cc1c[nH]cn1)c1ccccc1 (mixture of isomers) [1{3,b}]
Response: 124.358

Query: Param item: O=C(C=Cc1c[nH]cn1)NC(COP(=O)(O)O)C(=O)N1CCCC1C(=O)NCCCn1ccnc1 (stereo not drawn) [1{12,b}]
Response: 94.4757
